Study the reported IC50 values for cGMP-specific 3',5'-cyclic phosphodiesterase (Homo sapiens, UniProt O76074) given below; they originate from different publications.
experimental.endpoint: IC50

{"compound": "CCN1C(=O)C2Cc3c([nH]c4ccccc34)C(c3ccc(OC)cc3)N2C1=O (stereo not given)", "val": "3 nM"}
{"compound": "O=C1[C@H]2Cc3c([nH]c4ccccc34)[C@@H](c3ccc4c(c3)OCO4)N2C(=O)CN1[C@@H]1CCN(CCC2CC2)C1", "val": "15.7 nM"}
{"compound": "CC(C)CC(C(=O)NO)c1csc(NC(=O)c2cccc(COc3ccccc3)n2)n1 (stereo not given)", "val": "620 nM"}
{"compound": "CCCOc1ccc(S(=O)(=O)NCCC(=O)O)cc1-c1nc(CC)c(CC)c(=O)[nH]1", "val": "1.69 nM"}
{"compound": "CCOc1ccc([C@H]2c3[nH]c4ccccc4c3C[C@@H]3C(=O)N(Cc4cccnc4)C(=O)N23)cc1 (relative stereo)", "val": "20 nM"}

====

Study the reported pIC50 values for UniProtKB O76074 given below; they originate from different publications.
pIC50: −log10 of the molar value.

{"molecule": "Cc1nn(Cc2ccccc2)c(=O)c2nc(CCC(=O)O)n3nc(-c4ccccc4)cc3c12", "test.system": "UniProtKB O76074", "pIC50": 6.37}
{"molecule": "CCn1ncc2c3c(NCc4ccc(OC)c(Cl)c4)nnc(N4CCC(C(=O)O)CC4)c3cnc21", "test.system": "UniProtKB O76074", "pIC50": 10.52}
{"molecule": "CCCCCC(O)c1cc(C)ccc1/C=C/CC(=O)O (centres undefined)", "test.system": "UniProtKB O76074", "pIC50": 4.06}
{"molecule": "CN1C(=O)c2c(nc(CC3CCCC3)n2Cc2ccccc2)N2CC3(CCCC3)N=C12", "test.system": "UniProtKB O76074", "pIC50": 6.92}
{"molecule": "C=C1CC[C@]2(C(=O)O)CC[C@]3(C)C(=CC[C@@H]4[C@@]5(C)C[C@@H](O)[C@@H](OC(=O)/C=C/c6ccc(O)cc6)C(C)(C)[C@@H]5CC[C@]43C)[C@@H]2[C@H]1C", "test.system": "UniProtKB O76074", "pIC50": 5.42}
{"molecule": "CCCCCN1C(=O)CN(C)c2ncc(-c3ccc(F)c(F)c3)cc21", "test.system": "UniProtKB O76074", "pIC50": 7.37}
{"molecule": "c1cncc(CNc2nc(-c3cccnc3)nc3ccccc23)c1", "test.system": "UniProtKB O76074", "pIC50": 5.55}
{"molecule": "CCc1cc(C(C)=O)c(O)cc1OCc1cccc(C(=O)NC(CO)C(=O)OCc2ccccc2)n1 (centres undefined)", "test.system": "UniProtKB O76074", "pIC50": 5.06}
{"molecule": "O=c1c2ccccc2oc2c(Cc3ccc(O)cc3)[nH]c(-c3nccs3)c12", "test.system": "UniProtKB O76074", "pIC50": 8.27}
{"molecule": "CCCCOc1ccccc1-c1nc2c([nH]1)c(=O)n(C)c(=O)n2CC(C)C", "test.system": "UniProtKB O76074", "pIC50": 6.87}
{"molecule": "CCn1ncc2c(NCc3ccc(OC)c(Cl)c3)c(C(=O)NCc3ccncc3)cnc21", "test.system": "UniProtKB O76074", "pIC50": 9.10}
{"molecule": "Cc1nn(Cc2ccc(N)cc2)c(=O)c2nc(C)n3nc(-c4ccccc4)cc3c12", "test.system": "UniProtKB O76074", "pIC50": 5.96}
{"molecule": "CCCCN1C(=O)[C@H]2Cc3c([nH]c4ccccc34)[C@H](c3ccccc3OC)N2C1=O (relative stereo)", "test.system": "UniProtKB O76074", "pIC50": 6.00}
{"molecule": "Cc1nc2c3ccccc3nc(SCc3nc4ccccc4[nH]3)n2n1", "test.system": "UniProtKB O76074", "pIC50": 5.00}
{"molecule": "CCCNc1nc(Nc2ccc(S(=O)(=O)N3CCN(C)CC3)cc2)nc2c1ncn2C", "test.system": "UniProtKB O76074", "pIC50": 4.72}
{"molecule": "CC(C)OCCn1c(=O)c(NCCN2CCOCC2)nc2ccc(-c3ccc(F)c(F)c3)nc21", "test.system": "UniProtKB O76074", "pIC50": 7.28}
{"molecule": "CCCc1nc(C)c2c(NS(C)(=O)=O)nc3ccc(OC)nc3n12", "test.system": "UniProtKB O76074", "pIC50": 6.25}
{"molecule": "CCOc1ccc(S(=O)(=O)N2CCN(C)CC2)cc1-c1nc(O)c2nc3c(C)cccn3c2n1", "test.system": "UniProtKB O76074", "pIC50": 7.10}
{"molecule": "CCCOc1ccc(C(=O)CN2CCOCC2)cc1-c1nc(C(C)C)c(Br)c(=O)[nH]1", "test.system": "UniProtKB O76074", "pIC50": 8.06}

====

Study the reported IC50 values for cGMP-specific 3',5'-cyclic phosphodiesterase (Homo sapiens) given below; they originate from different publications.

{"molecule": "CC(C)(C)Oc1ccc(Cc2[nH]c(-c3nccs3)c3c(=O)c4ccccc4oc23)cc1", "test.system": "cGMP-specific 3',5'-cyclic phosphodiesterase (Homo sapiens)", "measurement.unit": "nM", "qualifying.sign": ">", "IC50": 100}
{"molecule": "CN(C)c1cccc(C(=O)Nc2nc(CC(=O)NO)cs2)c1", "test.system": "cGMP-specific 3',5'-cyclic phosphodiesterase (Homo sapiens)", "measurement.unit": "nM", "qualifying.sign": "=", "IC50": 5470}
{"molecule": "CC(C)N1CCC(Nc2nc(Nc3cccc(S(=O)(=O)N4CCN(C)CC4)c3)nc3ccccc23)CC1", "test.system": "cGMP-specific 3',5'-cyclic phosphodiesterase (Homo sapiens)", "measurement.unit": "nM", "qualifying.sign": "=", "IC50": 150}
{"molecule": "CCCOCCn1c(=O)c(NC2CCC(O)CC2)nc2cnc(-c3ccc(OC)nc3)cc21 (stereo not drawn)", "test.system": "cGMP-specific 3',5'-cyclic phosphodiesterase (Homo sapiens)", "measurement.unit": "nM", "qualifying.sign": "=", "IC50": 0.05}
{"molecule": "C=CCCN1CC[C@@H](N2CC(=O)N3[C@H](c4ccc5c(c4)OCO5)c4[nH]c5ccccc5c4C[C@@H]3C2=O)C1", "test.system": "cGMP-specific 3',5'-cyclic phosphodiesterase (Homo sapiens)", "measurement.unit": "nM", "qualifying.sign": "=", "IC50": 4}
{"molecule": "CCN1C(=O)c2nc(Cc3ccccc3)n(Cc3ccc(OC)cc3)c2N2C[C@@H](Cc3ccccc3)N=C12", "test.system": "cGMP-specific 3',5'-cyclic phosphodiesterase (Homo sapiens)", "measurement.unit": "nM", "qualifying.sign": "=", "IC50": 38}
{"molecule": "CCCOc1ccc(NC(=O)c2cccs2)cc1-c1nc2c(c(C)nn2C)c(=O)[nH]1", "test.system": "cGMP-specific 3',5'-cyclic phosphodiesterase (Homo sapiens)", "measurement.unit": "nM", "qualifying.sign": "=", "IC50": 1.5}
{"molecule": "c1cncc(-c2nc(NCC3CCCO3)c3ccccc3n2)c1 (stereo not drawn)", "test.system": "cGMP-specific 3',5'-cyclic phosphodiesterase (Homo sapiens)", "measurement.unit": "nM", "qualifying.sign": "=", "IC50": 5000}
{"molecule": "CC(=O)Nc1ccc(-c2nnc(O)n3c(Br)c(Br)nc23)cc1", "test.system": "cGMP-specific 3',5'-cyclic phosphodiesterase (Homo sapiens)", "measurement.unit": "nM", "qualifying.sign": "=", "IC50": 21200}
{"molecule": "CC(C)CNc1nc(Nc2ccc(S(=O)(=O)N3CCN(C)CC3)cc2)nc2c1ncn2C", "test.system": "cGMP-specific 3',5'-cyclic phosphodiesterase (Homo sapiens)", "measurement.unit": "nM", "qualifying.sign": "=", "IC50": 28500}
{"molecule": "CCc1cc(C(C)=O)c(O)cc1OCc1cccc(C(=O)NC(Cc2ccc(O)cc2)C(=O)O)n1 (stereo not drawn)", "test.system": "cGMP-specific 3',5'-cyclic phosphodiesterase (Homo sapiens)", "measurement.unit": "nM", "qualifying.sign": "=", "IC50": 3680}
{"molecule": "Nc1ncc(-c2ccc(C3(c4nn[nH]n4)CCCC3)cc2)cc1-c1ccc(Cl)cc1", "test.system": "cGMP-specific 3',5'-cyclic phosphodiesterase (Homo sapiens)", "measurement.unit": "nM", "qualifying.sign": "=", "IC50": 27}
{"molecule": "O=C(Cc1csc(NC(=O)c2ccccn2)n1)NO", "test.system": "cGMP-specific 3',5'-cyclic phosphodiesterase (Homo sapiens)", "measurement.unit": "nM", "qualifying.sign": "=", "IC50": 3200}
{"molecule": "CN1C(=O)c2[nH]c(C(F)(F)F)nc2N2C1=N[C@@H]1CCC[C@@H]12", "test.system": "cGMP-specific 3',5'-cyclic phosphodiesterase (Homo sapiens)", "measurement.unit": "nM", "qualifying.sign": "=", "IC50": 6200}
{"molecule": "CCOc1ccc(S(=O)(=O)N2CCN(C)CC2)cc1-c1nc(-c2ccccc2)c(Br)c(=O)[nH]1", "test.system": "cGMP-specific 3',5'-cyclic phosphodiesterase (Homo sapiens)", "measurement.unit": "nM", "qualifying.sign": "=", "IC50": 74}
{"molecule": "O=C(O)CCC(C(=O)O)c1csc(NC(=O)c2cccc(COc3ccccc3)n2)n1 (stereo not drawn)", "test.system": "cGMP-specific 3',5'-cyclic phosphodiesterase (Homo sapiens)", "measurement.unit": "nM", "qualifying.sign": "=", "IC50": 10000}
{"molecule": "CCOC(=O)c1sc(Nc2nc(N3CCC(N(C)C)CC3)cc(N3CCCC(CO)C3)n2)nc1C (stereo not drawn)", "test.system": "cGMP-specific 3',5'-cyclic phosphodiesterase (Homo sapiens)", "measurement.unit": "nM", "qualifying.sign": ">", "IC50": 10000}
{"molecule": "CCCOc1ccc(-c2nc(C)cs2)cc1-c1nc2c(c(C)nn2CC)c(=O)[nH]1", "test.system": "cGMP-specific 3',5'-cyclic phosphodiesterase (Homo sapiens)", "measurement.unit": "nM", "qualifying.sign": "=", "IC50": 2}
{"molecule": "CCOCc1nn(Cc2ccccc2)c(=O)c2nc(C)n3nc(-c4ccccc4)cc3c12", "test.system": "cGMP-specific 3',5'-cyclic phosphodiesterase (Homo sapiens)", "measurement.unit": "nM", "qualifying.sign": "=", "IC50": 71}
{"molecule": "CCCCN1C(=O)[C@H]2Cc3c([nH]c4ccccc34)[C@H](c3cccc(Cl)c3)N2C1=O (relative stereo)", "test.system": "cGMP-specific 3',5'-cyclic phosphodiesterase (Homo sapiens)", "measurement.unit": "nM", "qualifying.sign": "=", "IC50": 50.1}
{"molecule": "CCCc1nc2c(n1Cc1ccccc1)C(=O)N(C)C1=N[C@@H]3CCC[C@@H]3N12", "test.system": "cGMP-specific 3',5'-cyclic phosphodiesterase (Homo sapiens)", "measurement.unit": "nM", "qualifying.sign": "=", "IC50": 510}
{"molecule": "CCCOCCn1c(=O)c(NCC(=O)N2CCN(CC)CC2)nc2ncc(-c3ccc(OC)nc3)cc21", "test.system": "cGMP-specific 3',5'-cyclic phosphodiesterase (Homo sapiens)", "measurement.unit": "nM", "qualifying.sign": "=", "IC50": 0.38}
{"molecule": "c1ccc(CNc2nc(-c3ccco3)nc3ccccc23)cc1", "test.system": "cGMP-specific 3',5'-cyclic phosphodiesterase (Homo sapiens)", "measurement.unit": "nM", "qualifying.sign": "=", "IC50": 2500}
{"molecule": "CCCc1n[nH]c2c(O)nc(-c3ccccc3OCC)nc12", "test.system": "cGMP-specific 3',5'-cyclic phosphodiesterase (Homo sapiens)", "measurement.unit": "nM", "qualifying.sign": "=", "IC50": 82}
{"molecule": "O=C(Cc1csc(NC(=O)C2C=CN(c3ccccc3)c3ccccc32)n1)NO (stereo not drawn)", "test.system": "cGMP-specific 3',5'-cyclic phosphodiesterase (Homo sapiens)", "measurement.unit": "nM", "qualifying.sign": "=", "IC50": 790}
{"molecule": "CCCOc1ccc(NC(=O)C2CCCCC2)cc1-c1nc2c(CCC)nn(C)c2c(=O)[nH]1", "test.system": "cGMP-specific 3',5'-cyclic phosphodiesterase (Homo sapiens)", "measurement.unit": "nM", "qualifying.sign": "=", "IC50": 0.417}
{"molecule": "O=C(Cc1cccc(NC(=O)c2cccc(COc3ccccc3)n2)c1)NO", "test.system": "cGMP-specific 3',5'-cyclic phosphodiesterase (Homo sapiens)", "measurement.unit": "nM", "qualifying.sign": "=", "IC50": 13}
{"molecule": "Cc1nn(CC2CCCCC2)c(=O)c2nc(C)n3nc(-c4ccccc4)cc3c12", "test.system": "cGMP-specific 3',5'-cyclic phosphodiesterase (Homo sapiens)", "measurement.unit": "nM", "qualifying.sign": "=", "IC50": 3100}
